System: SK-MEL-5 melanoma
test-method-notes: NCI-60 one-dose screen, 48 h (100 = growth as untreated, 0 = no growth, -100 = all killed)
condition-set: 10 µM
The panel holds about 83,000 compounds, 20% with a hit somewhere; the sample as a whole holds those more often. Calls of active or inactive are those of the source. Rule for the calls: active = growth percent below 10; inactive = the rest.

{"molecule": "CC/C(=C/c1ccc(OC)cc1)[N+](=O)[O-]", "growth": "36.2% (inactive)"}
{"molecule": "CC(=O)Nc1c2sscc-2n(C)c1=O", "growth": "-100% (active)"}
{"molecule": "O=C(CCl)Nc1ccc(Cl)cc1", "growth": "30.3% (inactive)"}
{"molecule": "N#CCc1ccccc1", "growth": "99.4% (inactive)"}

Origin of the recorded values: PubChem BioAssay (NCI)
